The measurements presented in this section are drawn from PubChem BioAssay (NCATS).

Tested on: WaGa
Assay: qHTS assay to identify novel small-molecules to repurpose for Merkel cell carcinoma treatment (AID 1296009); further: nearly all actives have a fitted effect of over 60% in size
Conditions: MCC and control cell lines, CellTiter-Glo viability, 72 h; series mostly up to 46 µM
Results filed as inconclusive are left out. The source made the active and inactive calls. The call rests on the fitted dose curve; in most records, active means well fitted inhibition curve with a large enough effect; inconclusive means small, poorly fitted or top-dose-only effect; inactive means flat fitted curve, though single readings scatter.
Permitted responses: active, inactive

Query string: Write down the call the test reported for this molecule. Item: Cn1c(NCCN(CCO)CCCc2ccc([N+](=O)[O-])cc2)cc(=O)n(C)c1=O
Result string: inactive

Query string: Here is the next molecule: CCOC(=O)C(C)Oc1cccc2c(=O)n(CC(=O)Nc3ccc4c(c3)OCCO4)ccc12 (configuration not stated)
Result string: inactive

Query string: What do you have for O=c1oc2cc(O)ccc2s1 ?
Result string: inactive

Query string: Another molecule: O=C(CCc1ccc(O)cc1)c1c(O)cc(O)cc1O
Result string: active

Query string: Cool, now CCN(CC)CCOc1ccc(Cc2ccccc2)cc1
Result string: inactive

Query string: Also O=C(NCCO[N+](=O)[O-])c1cccnc1 ?
Result string: inactive

Query string: Try this molecule too: COc1ccc2cc([C@H](C)C(=O)O)ccc2c1
Result string: inactive

Query string: Cool, now O=C(O)CCNC(=O)c1ccc(N=Nc2ccc(O)c(C(=O)O)c2)cc1
Result string: inactive

Query string: Lookup CCc1nc(N)nc(N)c1-c1ccc(Cl)cc1
Result string: active

Query string: Thanks! And C[C@@H](c1ncncc1F)[C@](O)(Cn1cncn1)c1ccc(F)cc1F ?
Result string: inactive

Query string: Lookup CN1CCC(=C2c3ccccc3CCc3sccc32)CC1
Result string: inactive

Query string: CC(=O)NC[C@H]1CN(c2ccc(N3CCOCC3)c(F)c2)C(=O)O1 , same question.
Result string: inactive

Query string: Try this molecule too: NS(=O)(=O)c1cc(C(=O)O)c(NCc2ccco2)cc1Cl
Result string: inactive

Query string: And the next one, CCC[C@@H]1C[C@@H](C(=O)N[C@@H]([C@H]2O[C@H](SC)[C@H](O)[C@@H](O)[C@H]2O)[C@@H](C)O)N(C)C1 ?
Result string: inactive

Query string: Would you kindly repeat that for CNC[C@@H](O)[C@@H](O)[C@H](O)[C@H](O)CO ?
Result string: inactive

Query string: Repeat for the following molecule: CC(C)(S)[C@@H](N)C(=O)O
Result string: inactive

Query string: Same lookup for CCOC(=O)C1=C(O)C(=O)N(Cc2ccccc2)C1 , please.
Result string: inactive
